Entries and their measured melting point follow.

input_smiles: O=c1ccc(-c2ccc3c(c2)COC2(CCN(C4COC4)CC2)O3)c[nH]1
melting point: 262 to 264 °C

input_smiles: COc1ncc(-c2ccc3c(c2)COC2(CCN(C4CCC4)CC2)O3)c(OC)n1
melting point: 250 °C (dec.)

input_smiles: NC(=O)c1cccc(-c2ccc3c(c2)COC2(CCN(C4CCC4)CC2)O3)c1
melting point: 109.3 °C

input_smiles: CN(C(=O)N1CCN(c2ccc3c(c2)COC2(CCN(C4CCC4)CC2)O3)CC1)c1ccccc1
melting point: 107 to 110 °C

input_smiles: c1ccc(N2CCN(c3ccc4c(c3)CCC3(CCN(C5CCC5)CC3)O4)CC2)nc1
melting point: 171 to 172 °C

input_smiles: c1cc2c(cc1OCC1CCSCC1)CCC1(CCN(C3CCC3)CC1)O2
melting point: 117 to 118 °C

input_smiles: CCn1cc(-c2ccc3c(c2)COC2(CCN(C4CCC4)CC2)O3)ccc1=O
melting point: 156 to 158 °C

input_smiles: O=S(=O)(c1ccccc1)C1CCN(c2ccc3c(c2)COC2(CCN(C4CCC4)CC2)O3)CC1
melting point: 78.4 to 80.2 °C

input_smiles: CN(C)C(=O)NC1CCN(c2ccc3c(c2)COC2(CCN(C4CCC4)CC2)O3)CC1
melting point: 193 to 195.2 °C

input_smiles: O=C(NC1CCOCC1)c1cccc(COc2ccc3c(c2)CCC2(CCN(C4CCC4)CC2)O3)c1
melting point: 158 to 160 °C

input_smiles: c1cc2c(cc1C1CCSCC1)COC1(CCN(C3CCC3)CC1)O2
melting point: 153 to 155 °C

---

Entries and their measured melting point follow.

molecule: CS(=O)(=O)c1ccc(-c2ccc3c(c2)COC2(CCN(C4CCC4)CC2)O3)cc1Cl [Example 622]
melting point: 198 to 201 °C

molecule: c1ccc(CNc2ccc3c(c2)COC2(CCN(C4CCC4)CC2)O3)cc1 [Example 305]
melting point: 85 to 87 °C

molecule: CC(C)C(=O)NC1CCN(c2ccc3c(c2)CCC2(CCN(C4CCC4)CC2)O3)CC1 [Example 571]
melting point: 199.3 to 201.2 °C

molecule: CC(=O)N1CCN(c2ccc3c(c2)COC2(CCN(C4CCC4)CC2)O3)CC1 [Example 283]
melting point: 60.8 to 62.3 °C

molecule: c1ccc(CN2CCN(c3ccc4c(c3)CCC3(CCN(C5CCC5)CC3)O4)CC2)cc1 [Example 365]
melting point: 292 to 293 °C

molecule: O=c1ccc(CCc2ccc3c(c2)COC2(CCN(C4CCC4)CC2)O3)c[nH]1 [Example 528]
melting point: 183 to 185 °C

molecule: O=C(O)c1cc(-c2ccc3c(c2)COC2(CCN(C4CCC4)CC2)O3)cs1 [Example 570]
melting point: 230 to 240 °C (dec.)

molecule: Cc1[nH]c(=O)ccc1-c1ccc2c(c1)COC1(CCN(C3CCC3)CC1)O2 [Example 736]
melting point: 191 to 193 °C
